- SYSTEM_NAME: T1, Oct6 DNA-binding domain (BD-Oct6) (Mus musculus (B6), UniProt P21952 317-416)
- T1 sequence: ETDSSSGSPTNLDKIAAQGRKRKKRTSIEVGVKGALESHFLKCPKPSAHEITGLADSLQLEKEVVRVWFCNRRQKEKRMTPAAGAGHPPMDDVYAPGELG
- PROTOCOL_TEXT: EMSA; 10% glycerol, 20 mM HEPES pH 7.8, 45 mM KCl, 10 mM NaCl, 1 mM EDTA, 1 mM DTT, 0.2 ug/uL BSA, 0.1% NP-40, 50 ng poly-dIdC; 20 ng each GST protein; room temperature 30 min (heterodimers 4 C); 6% PAGE 0.25x TBE
- DETAILS: protein: recombinant; tags: GST (N-terminal, pGEX-6P-1); label: 32P-dCTP fill-in of the 5' (dG)5 overhangs of both strands (Methods; control probes are given with GGG)
MEASURED_PARAMETER: binding result

BINDER	binding result
96 (dsDNA) DNA 1: GGGGGACATAGACACAAATAGCAGACAATGACCTTGACCCCC DNA 2: GGGGGTCAAGGTCATTGTCTGCTATTTGTGTCTATGTCCCCC	no binding
9 (dsDNA) DNA 1: GGGGGTCCTGCCACTTGGGTTGCAGTGAGGACAATGAAATGAGCCCCC DNA 2: GGGGGCTCATTTCATTGTCCTCACTGCAACCCAAGTGGCAGGACCCCC	no binding
39 (dsDNA) DNA 1: GGGGGTTCAGGTTTTTGTAGGAACTTAAATTTTATGATTAGCCCCC DNA 2: GGGGGCTAATCATAAAATTTAAGTTCCTACAAAAACCTGAACCCCC	binds
48 (dsDNA) DNA 1: GGGGGATGAAATGGCTAAATCCTTTTTTTGTTGTTTGTTCCCCC DNA 2: GGGGGAACAAACAACAAAAAAAGGATTTAGCCATTTCATCCCCC	no binding

Given item 30 (dsDNA) DNA 1: GGGGGTGTCTTCTCCCTAATGATTGTTGTATGACCCCCC DNA 2: GGGGGGTCATACAACAATCATTAGGGAGAAGACACCCCC , the value recorded as its binding result is binds

Measured binding result, 27 (dsDNA) DNA 1: GGGGGCACACCTGTTTGTTTTCCACTTCACAGAGGAGGCATAGGAAACTCCCCC DNA 2: GGGGGAGTTTCCTATGCCTCCTCTGTGAAGTGGAAAACAAACAGGTGTGCCCCC : no binding

Value of binding result reported for the binder 57 (dsDNA) DNA 1: GGGGGCCTAAGATTCTTAATCTGACATTGTAGTCCCTACCCCC DNA 2: GGGGGTAGGGACTACAATGTCAGATTAAGAATCTTAGGCCCCC is binds

binding result measured on 29 (dsDNA) DNA 1: GGGGGAAAAACTTTTTGTTATTTCATTTTTATTAGTGGCCCCC DNA 2: GGGGGCCACTAATAAAAATGAAATAACAAAAAGTTTTTCCCCC = binds

Kindly note the recorded binding result for 47 (dsDNA) DNA 1: GGGGGCCACCATCTGTAATGTCCTTGGCACAATAAAACCAACCCCC DNA 2: GGGGGTTGGTTTTATTGTGCCAAGGACATTACAGATGGTGGCCCCC , which is binds

Data point: 116 (dsDNA) DNA 1: GGGGGAAGGCCAGACTAATCTACAAAGTGAGTTCCCCCC DNA 2: GGGGGGAACTCACTTTGTAGATTAGTCTGGCCTTCCCCC ; binding result = no binding

Form: binder = 100 (dsDNA) DNA 1: GGGGGCAACCAAAAAAAATGTATTTTACAAAAATCACAACCCCC DNA 2: GGGGGTTGTGATTTTTGTAAAATACATTTTTTTTGGTTGCCCCC ; binding result = binds

Just for reference, paper PMC3713010 is where these values come from.
